- system: human glypican-3 (GPC3) (human, UniProt P51654 25-554); further: test concentration or dose not given here
- method-summary: cell-based or functional assay
Reported values of JHH-7 Internalization (MFI) for individual entries
Enter your answer as a number in MFI; do not include the unit.

Give its JHH-7 Internalization (MFI) value. Item: H18L6_LC_G34T mAb, v40209 (antibody, human IgG1, kappa, V domains shown, M3-H18L6 chains with the stated light chain point mutation, IgG1/kappa) VH: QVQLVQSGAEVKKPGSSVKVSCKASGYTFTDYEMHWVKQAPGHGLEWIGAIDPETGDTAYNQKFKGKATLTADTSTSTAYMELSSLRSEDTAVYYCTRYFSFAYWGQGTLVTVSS VL: EIVLTQSPATLSLSPGERATISCRSSQSLRHSNTNTYLQWYQQKPGQAPRLLIYKVSNRFSGVPARFSGSGSGTDFTLTISSLEPEDFAVYFCYQSKHVPYTFGGGTKVEIKR
9040

// next record codrituzumab (v37575) (antibody, human IgG1, kappa, V domains shown, also called GC33; RG-7686) VH: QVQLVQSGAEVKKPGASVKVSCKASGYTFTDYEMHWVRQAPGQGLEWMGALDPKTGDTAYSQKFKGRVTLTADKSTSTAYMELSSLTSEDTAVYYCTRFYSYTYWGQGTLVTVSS VL: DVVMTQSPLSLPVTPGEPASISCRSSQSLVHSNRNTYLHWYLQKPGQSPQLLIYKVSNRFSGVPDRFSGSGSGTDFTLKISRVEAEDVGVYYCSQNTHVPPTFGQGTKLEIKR
6560

// next record H18L6_LC_G34R mAb, v40206 (antibody, human IgG1, kappa, V domains shown, Full-size IgG1/kappa) VH: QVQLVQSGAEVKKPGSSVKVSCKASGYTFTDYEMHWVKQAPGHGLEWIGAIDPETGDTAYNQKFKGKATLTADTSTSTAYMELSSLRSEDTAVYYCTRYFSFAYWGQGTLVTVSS VL: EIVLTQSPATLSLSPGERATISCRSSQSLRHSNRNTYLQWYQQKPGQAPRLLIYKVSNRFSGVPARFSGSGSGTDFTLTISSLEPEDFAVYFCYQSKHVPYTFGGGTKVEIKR
9240

// next record H18L6_LC_N33E mAb, v40213 (antibody, human IgG1, kappa, V domains shown, M3-H18L6 chains with the stated light chain point mutation, IgG1/kappa) VH: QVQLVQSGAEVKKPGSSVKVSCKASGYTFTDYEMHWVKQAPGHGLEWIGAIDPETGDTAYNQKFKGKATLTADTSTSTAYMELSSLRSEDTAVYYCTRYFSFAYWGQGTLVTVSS VL: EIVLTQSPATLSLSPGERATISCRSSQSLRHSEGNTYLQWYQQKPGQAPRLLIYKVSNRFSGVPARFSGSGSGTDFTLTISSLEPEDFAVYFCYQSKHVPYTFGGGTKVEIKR
1220

Others:
Give its JHH-7 Internalization (MFI) value. Item: H18L6_LC_G34Q mAb, v40208 (antibody, human IgG1, kappa, V domains shown, Full-size IgG1/kappa) VH: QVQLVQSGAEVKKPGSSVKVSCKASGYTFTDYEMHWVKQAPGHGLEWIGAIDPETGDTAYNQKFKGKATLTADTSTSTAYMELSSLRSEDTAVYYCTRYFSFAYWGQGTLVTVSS VL: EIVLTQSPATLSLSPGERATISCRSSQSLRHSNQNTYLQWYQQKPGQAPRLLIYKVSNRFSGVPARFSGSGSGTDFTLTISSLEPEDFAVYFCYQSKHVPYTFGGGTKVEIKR
8920

Source of measurements: patent US20250295799A1
